Below are molecules with their IC50 as measured on EGFR (Homo sapiens, UniProt P00533).
Sequence (P00533 25-1210): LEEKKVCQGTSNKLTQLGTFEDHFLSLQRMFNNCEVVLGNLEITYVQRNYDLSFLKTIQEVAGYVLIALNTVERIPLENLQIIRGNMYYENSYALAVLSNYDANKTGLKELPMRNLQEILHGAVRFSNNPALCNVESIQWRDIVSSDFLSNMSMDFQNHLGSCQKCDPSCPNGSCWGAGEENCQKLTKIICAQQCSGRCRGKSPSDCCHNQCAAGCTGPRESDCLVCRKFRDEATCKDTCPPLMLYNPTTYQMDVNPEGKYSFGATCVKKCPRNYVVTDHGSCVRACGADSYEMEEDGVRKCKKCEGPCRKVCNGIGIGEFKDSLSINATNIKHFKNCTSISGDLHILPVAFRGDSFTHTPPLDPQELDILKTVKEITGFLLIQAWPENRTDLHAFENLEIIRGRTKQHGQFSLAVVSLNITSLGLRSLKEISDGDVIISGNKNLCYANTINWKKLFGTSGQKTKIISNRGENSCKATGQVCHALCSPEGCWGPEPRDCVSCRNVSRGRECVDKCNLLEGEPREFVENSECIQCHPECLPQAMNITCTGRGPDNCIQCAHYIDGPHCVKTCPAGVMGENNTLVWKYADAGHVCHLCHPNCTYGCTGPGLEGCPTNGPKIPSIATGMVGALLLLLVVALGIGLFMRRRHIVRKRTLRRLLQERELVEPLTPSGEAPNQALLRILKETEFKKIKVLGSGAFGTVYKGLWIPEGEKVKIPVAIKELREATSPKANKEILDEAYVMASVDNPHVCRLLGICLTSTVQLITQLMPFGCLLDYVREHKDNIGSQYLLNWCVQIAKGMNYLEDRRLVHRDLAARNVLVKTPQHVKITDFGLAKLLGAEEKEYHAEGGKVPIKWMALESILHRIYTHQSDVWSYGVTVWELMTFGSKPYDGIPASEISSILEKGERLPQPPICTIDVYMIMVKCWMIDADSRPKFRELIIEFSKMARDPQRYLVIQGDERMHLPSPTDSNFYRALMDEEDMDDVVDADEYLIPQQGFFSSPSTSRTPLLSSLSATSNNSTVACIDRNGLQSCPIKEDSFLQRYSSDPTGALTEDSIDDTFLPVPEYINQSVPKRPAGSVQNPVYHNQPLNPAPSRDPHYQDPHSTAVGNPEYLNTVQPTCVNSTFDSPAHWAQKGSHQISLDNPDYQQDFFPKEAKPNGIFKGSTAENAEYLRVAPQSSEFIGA

# example entries with known answers
molecule="Cc1ccnc(NC(=O)c2ccc(Oc3ccnc4[nH]nc(N[C@@H]5CCCN(C(=O)C6(C)CCOC6)C5)c34)cc2)c1 (stereo partly shown)" measuredvalue="> 10 µM"
molecule=Cc1ccnc(NC(=O)c2ccc(Oc3ccnc4[nH]nc(N[C@@H]5CCCN(C(=O)C6CC6)C5)c34)cc2)c1 measuredvalue="1 to 10 µM"
molecule=CCC(=O)N1CC[C@@H](Nc2n[nH]c3nccc(Oc4ccc(C(=O)Nc5nccn5C)cc4)c23)C1 measuredvalue="> 10 µM"

Result for Cc1cc(NC(=O)c2ccc(Oc3ccnc4[nH]nc(N[C@@H]5CCCN(C(=O)/C=C/CN(C)C6CC6)C5)c34)cc2)nn1C , tested on EGFR (Homo sapiens, UniProt P00533), IC50: > 10 µM

Result for c1ccc(Oc2ccc(Oc3ccnc4[nH]nc(NC5CCOCC5)c34)cc2)cc1 , tested on EGFR (Homo sapiens, UniProt P00533), IC50: < 0.1 µM

Result for CN(C)C/C=C/C(=O)N1CC[C@@H](Nc2n[nH]c3ncnc(Oc4ccc(Oc5ccccc5)cc4)c23)C1 , tested on EGFR (Homo sapiens, UniProt P00533), IC50: < 0.1 µM

Result for C=CC(=O)N1CCC[C@@H](Nc2n[nH]c3nccc(Oc4ccc(C(=O)Nc5cc(C)on5)cc4)c23)C1 , tested on EGFR (Homo sapiens, UniProt P00533), IC50: 1 to 10 µM
